We begin with a simple list: items and their reported activity (max response).
# Assay Overview: Cellular viability qHTS for adrenocortical cancer (ACC) cell line SW-13 (AID 1963989);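 further: cells grown in serum-free medium with ITS supplement; on the % scale 0 is the no-effect control and ±100 the full control effect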
# Assay Setup: SW-13 ACC cells viability, CellTiter-Glo, 48 h; stronger effect = lower value
Inconclusive results are not listed.
Dear colleague, please return just the value in %, with no unit written.

Consider the following illustrative entries.
Compound	Reported Measurement
Cc1nn(C)c2c1C(c1ccc(C(F)(F)F)cc1)C(C#N)=C(N)O2 (stereo unspecified)	-18.7
COc1cc(OC)cc(OC)c1	5.62
Nc1ccc(C(=O)O)cc1	6.83
Cc1cc(OI)c(C(C)C)cc1-c1cc(C(C)C)c(OI)cc1C	11.4
O=C1CN(/N=C/c2ccc([N+](=O)[O-])o2)C(=O)N1	-20.9

We next turn to a different compound, shown below.
Prompt line: activity (max response) lookup needed for CC(=O)Nc1ccc(OC(=O)c2ccccc2OC(C)=O)cc1 , thanks.
Response line: 8.82
